Readings of EC50, ELK-luciferase assay for the listed binders
TESTED_TARGET: beta-klotho
ASSAY_TEXT: cell-based or functional assay
// note: answer is a bare numeric in µM

### Prompt Report measured EC50, ELK-luciferase assay; entry is dually PEGylated FGF21 mutant E91C, G120C (ligand, 20 kDa methoxy-PEG-maleimide on Cys 91 and on Cys 120) MHPIPDSSPLLQFGGQVRQRYLYTDDAQQTEAHLEIREDGTVGGAADQSPESLLQLKALKPGVIQILGVKTSRFLCQRPDGALYGSLHFDPCACSFRELLLEDGYNVYQSEAHGLPLHLPCNKSPHRDPAPRGPARFLPLPGLPPAPPEPPGILAPQPPDVGSSDPLSMVGPSQGRSPSYAS
### Response 0.054

### Prompt Report measured EC50, ELK-luciferase assay; entry is dually PEGylated FGF21 mutant E37C, R77C (ligand, 20 kDa methoxy-PEG-maleimide on Cys 37 and on Cys 77) MHPIPDSSPLLQFGGQVRQRYLYTDDAQQTEAHLEIRCDGTVGGAADQSPESLLQLKALKPGVIQILGVKTSRFLCQCPDGALYGSLHFDPEACSFRELLLEDGYNVYQSEAHGLPLHLPGNKSPHRDPAPRGPARFLPLPGLPPAPPEPPGILAPQPPDVGSSDPLSMVGPSQGRSPSYAS
### Response 0.021

### Prompt Report measured EC50, ELK-luciferase assay; entry is dually PEGylated FGF21 mutant H125C, R175C (ligand, 20 kDa methoxy-PEG-maleimide on Cys 125 and on Cys 175) MHPIPDSSPLLQFGGQVRQRYLYTDDAQQTEAHLEIREDGTVGGAADQSPESLLQLKALKPGVIQILGVKTSRFLCQRPDGALYGSLHFDPEACSFRELLLEDGYNVYQSEAHGLPLHLPGNKSPCRDPAPRGPARFLPLPGLPPAPPEPPGILAPQPPDVGSSDPLSMVGPSQGCSPSYAS
### Response 0.2

New cases:
### Prompt Report measured EC50, ELK-luciferase assay; entry is dually PEGylated FGF21 mutant E91C, R175C (ligand, 20 kDa methoxy-PEG-maleimide on Cys 91 and on Cys 175) MHPIPDSSPLLQFGGQVRQRYLYTDDAQQTEAHLEIREDGTVGGAADQSPESLLQLKALKPGVIQILGVKTSRFLCQRPDGALYGSLHFDPCACSFRELLLEDGYNVYQSEAHGLPLHLPGNKSPHRDPAPRGPARFLPLPGLPPAPPEPPGILAPQPPDVGSSDPLSMVGPSQGCSPSYAS
### Response 0.046
